target: HIV Env of isolate HIV-0013095-2.11 (clade C) (HIV); test: cell-based or functional assay
Readout label: IC50 (µg/ml) with constrains

Prompt: Quick check: IC50 (µg/ml) with constrains of ePGDM5 (antibody, V domains shown) VH: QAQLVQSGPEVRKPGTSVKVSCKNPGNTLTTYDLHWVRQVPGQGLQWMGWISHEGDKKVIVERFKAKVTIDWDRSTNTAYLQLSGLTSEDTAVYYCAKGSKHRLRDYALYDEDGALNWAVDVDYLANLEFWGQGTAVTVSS VL: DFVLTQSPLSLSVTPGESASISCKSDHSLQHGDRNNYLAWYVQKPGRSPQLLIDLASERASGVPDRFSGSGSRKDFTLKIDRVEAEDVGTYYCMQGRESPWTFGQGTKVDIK ?
Completion: > 100 µg/mL
